Biological target: T1, human PACAP27 (human, C-terminal leucine is amidated; 125I-labelled in Example 10)
T1 peptide: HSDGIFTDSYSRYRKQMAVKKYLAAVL
Assay: SPR, Ab immobilised
attribute_measured: koff

binder	attribute_measured	result
anti-PACAP antibody Ab16 (antibody, human IgG1, kappa, N297A, V domains shown, full-length rabbit/human chimeric antibody) VH: QSVEESGGRLVTPGTPLTLTCTVSGFSLSSAAMSWVRQAPGKGLEWIGIIDDSGNTYYASWAKARFTISKTSSTTVDLKMTSPTTEDTATYFCARGGGEFFIWGPGTLVTVSS VL: DPVLTQTPSSVSAAVGGTVTINCQSSQSVYNNKWLSWYQQKPGQSPKFLIYQASNLASGVPSRFKGSGSGTQFTLTISDLECDDGATYYCAGGYRGNVCGFGGGTEVVVKR	koff	2.9e-05 s⁻¹

Then there is this binder:
Notebook: anti-PACAP antibody Ab10 (antibody, V domains shown) VH: QSVEESGGRLVTPGTPLTLTCTVSGIDLNSYYMTWVRQAPGKGLEWIGFIDAGGDAYYASWAKGRFTISKTSTTVDLKITSPTTEDTATYFCARDLDLWGQGTLVTVSS VL: AAVLTQTPSPVSAAVGGTVTINCQSSESVYGNYLAWFQQKPGQPPKLLIYEASKLESGVPSRFSGSGSGTQFTLTISDLQCDDAATYYCAGGDISEGVAFGGGTEVVVKR , koff read as 1e-05 s⁻¹
